Source listed as PubChem BioAssay (NCATS).

- assay-target: Cytochrome P450 2C9 (Homo sapiens)
- test-protocol: Cytochrome P450 family 2 subfamily C member 9 (CYP2C9) small molecule antagonists: luciferase biochemical (cell-free) qHTS assay (AID 1645842); note: nearly all actives have a fitted effect of over 55% in size; note: potency is the fitted concentration of half-maximal effect
- cond: P450-Glo CYP2C9 enzyme assay, luciferin luminescence; series mostly up to 57.4 µM
Results filed as inconclusive are left out. The source made the active and inactive calls. Calls come from the whole dose curve; as a rule, active = well fitted inhibition curve with a large enough effect in the repeat runs; inconclusive = weak or mixed curves; inactive = no such curve, though single readings can be large or run the other way.
readout-label: Potency

INSERT INTO results (molecule, result) VALUES
  ('Cc1ccccc1C(=O)c1ccc(Nc2ccc(Br)cc2N)cc1Cl', '10.7 µM (active)'),
  ('Cc1cc(C(C)Nc2ccccc2)c2nc(N3CCOCC3)cc(=O)n2c1 (stereo not given)', '1.07 µM (active)'),
  ('CCc1cc(-c2n[nH]c(C)c2-c2ccc3c(c2)OCCO3)c(O)cc1O', '0.756 µM (active)'),
  ('Cc1ccc2c(c1)c1c(n2CCc2ccc(C)nc2)CCN(C)C1', '10.7 µM (active)'),
  ('COc1ccc(-c2cc3nccn3c(Nc3ncccc3C(N)=O)n2)cc1OC', '5.35 µM (active)');

[Q] Entry under review: CCOC(=O)N1c2ccc(C(F)(F)F)cc2[C@@H](N(Cc2cc(C(F)(F)F)cc(C(F)(F)F)c2)C(=O)OC)C[C@H]1CC . Reported Potency?
[A] inactive

[Q] Entry under review: CN1CCN(c2cccc(Nc3nc4c(-c5ccc(S(C)(=O)=O)cc5)cccn4n3)c2)CC1 . Reported Potency?
[A] 12 µM (active)

----------
- test-protocol: Quantitative High-Throughput drug screen in 47 multiple myeloma cell lines against the NCATS MIPE library collection: ARP1_JJKsccF8 cell viability assay (AID 1918928; note: nearly all actives have a fitted effect of over 40% in size)
- cond: ARP1 myeloma cells viability, CellTiter-Glo ATP, 48 h; series mostly up to 45.8 µM
Records with an inconclusive call do not appear. Active and inactive are the calls of the source. The call rests on the fitted dose curve; in most records, active means well fitted cell-killing curve with a large enough effect; inconclusive means small, poorly fitted or top-dose-only effect, or effect the other way; inactive means no such curve, though single readings can be large or run the other way.
Outcome field: choose from T (active), F (inactive)

Example cases with answers are listed next.
INSERT INTO measurements (molecule_smiles, category) VALUES
  ('COc1cc2ncnc(Nc3cc(Br)c(O)c(Br)c3)c2cc1OC', 'T'),
  ('COc1cc(Cl)cn2c(-c3cccc(NC4CNC4)n3)cnc12', 'F'),
  ('COC(=O)Nc1ccc(-c2nc(N3CCOCC3)c3cnn(C4CCN(C(=O)OC)CC4)c3n2)cc1', 'T'),
  ('COC(=O)N1CCN(Cc2cccc(NC(=O)Nc3ccc(C)nc3)c2F)CC1', 'F'),
  ('Cc1nc(C(=O)NCC(=O)O)c(O)c2ccc(Oc3ccccc3)cc12', 'F'),
  ('C[C@@H]1[C@H](O)[C@@H](C)C=CC=CC=CC=CC=CC=CC=C[C@H](O[C@@H]2O[C@H](C)[C@H](O)[C@H](N)[C@@H]2O)C[C@@H]2O[C@](O)(C[C@@H](O)C[C@@H](O)[C@H](O)CC[C@@H](O)C[C@@H](O)CC(=O)O[C@H]1C)C[C@H](O)[C@@H]2C(=O)O', 'T');

Here's the next entry for you.
[Q] Field: outcome | Entry: CCC[C@H](Nc1nc(-c2ccc(NC(=O)NCC)c(OC)c2)ncc1C)c1cccnc1
[A] T

----------
- test-protocol: qHTS of pediatric cancer cell lines to identify multiple opportunities for drug repurposing: Primary screen for SK-N-MC cells (AID 1347093)
- cond: SK-N-MC viability, CellTiter-Glo luminescence, 48 h; series mostly up to 46 µM
Inconclusive results are not listed. The source made the active and inactive calls. Calls follow the shape of the dose curve; as a rule, active = well fitted cell-killing curve with a large enough effect; inconclusive = small, poorly fitted or top-dose-only effect; inactive = no such curve, though single readings can be large or run the other way.
Outcome field: choose from TRUE = active, FALSE = inactive

INSERT INTO assay_data (molecule_smiles, category) VALUES
  ('Cc1[nH]c(C=C2C(=O)Nc3ccc(S(=O)(=O)N(C)c4cccc(Cl)c4)cc32)c(C)c1C(=O)N1CCN(C)CC1', 'TRUE'),
  ('C[C@@H]1C[C@H]2[C@@H]3CCC4=CC(=O)C=C[C@]4(C)[C@@]3(F)[C@@H](O)C[C@]2(C)[C@@]1(O)C(=O)CO', 'TRUE');

[Q] Field: outcome | Entry: Nc1nc(Cl)nc2c1ncn2[C@@H]1O[C@H](CO)[C@@H](O)[C@H]1F
[A] TRUE

[Q] Field: outcome | Entry: C[C@H]1[C@H](O)O[C@@H]2O[C@@]3(C)CC[C@@H]4[C@H](C)CC[C@@H]1[C@@]24OO3
[A] TRUE

[Q] Field: outcome | Entry: COc1cc(CNC(=O)CCCCC=CC(C)C)ccc1O
[A] FALSE
